Reference source for all entries: the antibiotic and cytotoxicity screens of Wong et al. (2023)

- Test system: HepG2
- ASSAY NAME: cytotoxicity call (relative viability < 0.9)
- CONDITIONS USED: 10 µM
The campaign covered roughly 39,000 compounds. About 3,300 (8.5%) were called active. The sample as a whole holds a higher share of actives than the screen did.
Labels: t for active, f for inactive

# COMPOUND STRUCTURE STRING, CATEGORY
measured = [
    ("C[C@H]1CN([C@@H](C)CO)C(=O)c2cc(NS(=O)(=O)c3ccc(Cl)cc3)ccc2O[C@@H]1CN(C)Cc1ccc(Oc2ccccc2)cc1", "t"),
    ("C[C@@H]1CN([C@@H](C)CO)C(=O)Cc2cc(NC(=O)CCCCCC(=O)Nc3ccccc3N)ccc2O[C@@H]1CN(C)Cc1ccccc1", "f"),
    ("Cc1ccc(S(=O)(=O)Nc2ccc3c(c2)C(=O)N([C@@H](C)CO)C[C@H](C)[C@H](CN(C)CC2CCCCC2)OCCCC[C@@H](C)O3)cc1", "f"),
    ("C[C@@H]1CN([C@@H](C)CO)C(=O)Cc2cc(NC(=O)CCCCCC(=O)Nc3ccccc3N)ccc2O[C@@H]1CN(C)Cc1ccc(-c2ccccc2)cc1", "t"),
    ("Cc1ccc(S(=O)(=O)N(C)C[C@@H]2OCCCC[C@H](C)Oc3ccc(NC(=O)Nc4ccc(C(F)(F)F)cc4)cc3C(=O)N([C@H](C)CO)C[C@H]2C)cc1", "f"),
    ("C[C@H]1CN([C@@H](C)CO)C(=O)Cc2cc(NC(=O)CCCCCC(=O)Nc3ccccc3N)ccc2O[C@H]1CN(C)Cc1ccc(Cl)c(Cl)c1", "f"),
    ("Cc1ccc(S(=O)(=O)N(C)C[C@@H]2OCCCC[C@H](C)Oc3ccc(NC(=O)Nc4ccc(C(F)(F)F)cc4)cc3C(=O)N([C@@H](C)CO)C[C@@H]2C)cc1", "f"),
    ("C[C@H](CO)N1C[C@H](C)[C@@H](CN(C)Cc2ccc(-c3ccccc3)cc2)Oc2ccc(NC(=O)CCCCCC(=O)Nc3ccccc3N)cc2CC1=O", "f"),
    ("Cc1ccccc1[C@@H](c1ncccc1C)N(C)C(=O)C1CCN(CCOc2ccc(Cl)cc2Cl)CC1", "f"),
    ("Cc1ccc(S(=O)(=O)Nc2ccc3c(c2)C(=O)N([C@H](C)CO)C[C@@H](C)[C@@H](CN(C)CC2CCCCC2)OCCCC[C@@H](C)O3)cc1", "t"),
    ("Cc1ccc(S(=O)(=O)Nc2ccc3c(c2)C(=O)N([C@@H](C)CO)C[C@@H](C)[C@@H](CN(C)CC2CCCCC2)OCCCC[C@H](C)O3)cc1", "f"),
    ("C[C@@H]1CN([C@H](C)CO)C(=O)Cc2cc(NC(=O)CCCCCC(=O)Nc3ccccc3N)ccc2O[C@@H]1CN(C)Cc1ccccc1", "f"),
    ("Cc1ccc(S(=O)(=O)Nc2ccc3c(c2)C(=O)N([C@H](C)CO)C[C@H](C)[C@@H](CN(C)CC2CCCCC2)OCCCC[C@H](C)O3)cc1", "f"),
    ("Cc1ccc(S(=O)(=O)Nc2ccc3c(c2)C(=O)N([C@H](C)CO)C[C@@H](C)[C@H](CN(C)CC2CCCCC2)OCCCC[C@@H](C)O3)cc1", "f"),
    ("O=C(C1=C[C@@H](c2csc3ccccc23)C[C@@H](OCc2ccc(CO)cc2)O1)N1CCN(Cc2ccccc2)CC1", "f"),
    ("C[C@H]1CN([C@@H](C)CO)C(=O)Cc2cc(NC(=O)CCCCCC(=O)Nc3ccccc3N)ccc2O[C@H]1CN(C)Cc1ccccc1", "f"),
    ("Cc1ccc(S(=O)(=O)Nc2ccc3c(c2)C(=O)N([C@@H](C)CO)C[C@@H](C)[C@H](CN(C)CC2CCCCC2)OCCCC[C@@H](C)O3)cc1", "f"),
    ("CCN(CC)CCNC(=O)c1c(C)[nH]c(/C=C2/C(=O)Nc3ccc(-c4csc(-c5ccccc5)n4)cc32)c1C", "t"),
    ("C[C@H](CO)N1C[C@H](C)[C@H](CN(C)Cc2ccccc2)Oc2ccc(NC(=O)CCCCCC(=O)Nc3ccccc3N)cc2CC1=O", "f"),
    ("C[C@H]1CN([C@@H](C)CO)C(=O)Cc2cc(NC(=O)CCCCCC(=O)Nc3ccccc3N)ccc2O[C@@H]1CN(C)Cc1ccc(-c2ccccc2)cc1", "f"),
    ("C[C@H](CO)N1C[C@H](C)[C@@H](CN(C)Cc2ccc3c(c2)OCO3)Oc2ccc(NC(=O)Nc3ccc(C(F)(F)F)cc3)cc2CC1=O", "t"),
    ("C[C@H](CO)N1C[C@H](C)[C@H](CN(C)Cc2ccc(-c3ccccc3)cc2)Oc2ccc(NC(=O)CCCCCC(=O)Nc3ccccc3N)cc2CC1=O", "t"),
    ("C[C@H]1CN([C@@H](C)CO)C(=O)Cc2cc(NC(=O)Nc3ccc(C(F)(F)F)cc3)ccc2O[C@@H]1CN(C)Cc1ccc2c(c1)OCO2", "f"),
    ("C[C@@H]1CN([C@@H](C)CO)C(=O)Cc2cc(NC(=O)Nc3ccc(C(F)(F)F)cc3)ccc2O[C@H]1CN(C)Cc1ccc2c(c1)OCO2", "t"),
    ("Cc1ccc(S(=O)(=O)Nc2ccc3c(c2)C(=O)N([C@H](C)CO)C[C@@H](C)[C@@H](CN(C)CC2CCCCC2)OCCCC[C@H](C)O3)cc1", "t"),
    ("Cc1ccc(S(=O)(=O)Nc2ccc3c(c2)C(=O)N([C@H](C)CO)C[C@H](C)[C@H](CN(C)CC2CCCCC2)OCCCC[C@H](C)O3)cc1", "t"),
]
